# protocol: Cytotoxicity test with CellTiter Glo
# Type: cell-based
# measurement_context: human, HepG2.2.15 cells, highest concentration 150 μM, read-out: CC50 values of the compounds of the invention
measured_property: CC50 at 4 days

// solved cases for CC50 at 4 days follow
molecule: COC(=O)C1=C(CN2CCN3C(=O)N(c4ccc(Sc5ccc(OC(C)C)cc5)cc4)C[C@@H]3C2)NC(c2nccs2)=N[C@H]1c1ccc(F)cc1Cl [Example 105]
measured_property: CC50 at 4 days
endpoint_value: > 150 µM

molecule: COC(=O)C1=C(CN2CCN3C(=O)N(CC#Cc4ccc(C(C)(C)O)cc4)C[C@@H]3C2)NC(c2nccs2)=N[C@H]1c1ccc(F)cc1Cl [Example 38]
measured_property: CC50 at 4 days
endpoint_value: > 150 µM

molecule: COC(=O)C1=C(CN2CCN3C(=O)N(c4nc(-c5ccc(C(C)(C)C(=O)O)cc5)cs4)C[C@@H]3C2)NC(c2nccs2)=N[C@H]1c1ccc(F)cc1Cl [Example 17]
measured_property: CC50 at 4 days
endpoint_value: > 150 µM

molecule: COC(=O)C1=C(CN2CCN3C(=O)N(c4ccc(Oc5ccc(C(=O)NCC(C)(C)C(=O)O)cc5)cc4)C[C@@H]3C2)NC(c2nccs2)=N[C@H]1c1ccc(F)cc1Cl [Example 75]
measured_property: CC50 at 4 days
endpoint_value: > 150 µM

molecule: COC(=O)C1=C(CN2CCN3C(=O)N(c4ccc(Oc5cc(F)cc(C(=O)O)c5)cn4)C[C@@H]3C2)NC(c2nccs2)=N[C@H]1c1ccc(F)cc1Cl [Example 79]
measured_property: CC50 at 4 days
endpoint_value: > 150 µM

Name the recorded CC50 at 4 days of the molecule listed here: COC(=O)C1=C(CN2CCN3C(=O)N(CC#Cc4ccc(CO)cc4)C[C@@H]3C2)NC(c2nccs2)=N[C@H]1c1ccc(F)cc1Cl [Example 37]
> 150 µM

Name the recorded CC50 at 4 days of the molecule listed here: COC(=O)C1=C(CN2CCN3C(=O)N(c4ccc(-c5nc(C6CC6)c[nH]5)cc4)C[C@@H]3C2)NC(c2nccs2)=N[C@H]1c1ccc(F)cc1Cl [Example 111]
> 150 µM

Name the recorded CC50 at 4 days of the molecule listed here: COC(=O)C1=C(CN2CCN3C(=O)N(c4ccnc(-c5ccc(C(=O)O)cc5)c4)C[C@@H]3C2)NC(c2nccs2)=N[C@H]1c1ccc(F)cc1Cl [Example 123]
> 150 µM

Name the recorded CC50 at 4 days of the molecule listed here: COC(=O)C1=C(CN2CCN3C(=O)N(c4cc(F)cc(-c5ccc(C(=O)O)c(F)c5)c4)C[C@@H]3C2)NC(c2nccs2)=N[C@H]1c1ccc(F)cc1Cl [Example 119]
> 150 µM

Name the recorded CC50 at 4 days of the molecule listed here: COC(=O)C1=C(CN2CCN3C(=O)N(c4ccc(-c5ccc(C(=O)O)cc5)c(F)c4)C[C@@H]3C2)NC(c2nccs2)=N[C@H]1c1ccc(F)cc1Cl [Example 35]
> 150 µM

Name the recorded CC50 at 4 days of the molecule listed here: COC(=O)C1=C(CN2CCN3C(=O)N(CC#Cc4ccc(C(=O)N(C)C)cc4)C[C@@H]3C2)NC(c2nccs2)=N[C@H]1c1ccc(F)cc1Cl [Example 42]
> 150 µM
